Cited source for all entries: patent US8637496B2

Biological target: MGDG synthase in isolated spinach chloroplast envelope membranes (Spinacia oleracea)
Construct: envelope membranes purified from the lysate by sucrose centrifugation gradient; from tissue; host or cells: envelope membranes of chloroplasts from spinach leaves
Sequence (Q9SM44 99-522): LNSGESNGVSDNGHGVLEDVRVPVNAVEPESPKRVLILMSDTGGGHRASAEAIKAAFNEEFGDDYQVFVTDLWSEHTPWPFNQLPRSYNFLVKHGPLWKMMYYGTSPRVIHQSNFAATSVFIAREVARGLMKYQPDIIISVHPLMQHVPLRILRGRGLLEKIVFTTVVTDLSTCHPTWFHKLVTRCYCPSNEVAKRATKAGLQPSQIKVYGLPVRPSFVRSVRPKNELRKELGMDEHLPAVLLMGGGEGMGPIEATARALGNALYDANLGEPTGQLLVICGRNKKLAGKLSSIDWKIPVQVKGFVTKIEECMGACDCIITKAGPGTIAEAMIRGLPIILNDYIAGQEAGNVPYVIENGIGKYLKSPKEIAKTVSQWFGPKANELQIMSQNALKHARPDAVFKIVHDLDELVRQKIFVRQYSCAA
Test: MGDG synthase activity in envelope membrane fractions isolated from spinach chloroplasts
Format: biochemical
Conditions: Table 1, obtained in the same manner as FIG. 4; read-out: Inhibitory effect on MGDG synthesis in isolated spinach chloroplast envelope membranes
pIC50: −log10 of the molar value. Where a name gives a salt, the structure may show the parent alone.
reported_property: pIC50

compound=CC(C)C[C@@H](COC(=O)N1CCC(n2c(=O)[nH]c3ccccc32)CC1)N(Cc1ccccc1)C(=O)OC(C)(C)C reported_property=pIC50 result_value=5.00
compound=O=C(OCCCN(Cc1ccccc1)Cc1ccccc1)N1CCC(n2c(=O)[nH]c3ccccc32)CC1 reported_property=pIC50 result_value=4.35
compound=O=C(OCCN(Cc1ccccc1)c1ccccc1)N1CCC(n2c(=O)[nH]c3ccccc32)CC1 reported_property=pIC50 result_value=4.40
compound="O=C(OCCCN(Cc1ccccc1)Cc1cccnc1)N1CCC(n2c(=O)[nH]c3ccccc32)CC1 [Compound 58, hydrochloride]" reported_property=pIC50 result_value=4.77
compound=O=C(OC[C@H](Cc1ccccc1)N(Cc1ccccc1)Cc1ccccc1)N1CCC(n2c(=O)[nH]c3ccccc32)CC1 reported_property=pIC50 result_value=5.00

P: O=C(OCCCN(Cc1ccccc1)Cc1ccc(F)cc1)N1CCC(n2c(=O)[nH]c3ccccc32)CC1 [Compound 67, hydrochloride]
Q: O=C(OCC(Cc1ccccc1)NCc1ccccc1)N1CCC(n2c(=O)[nH]c3ccccc32)CC1 (stereo not drawn)
Query: Dear colleague, could you let me know whether P or Q has the lower recorded pIC50? Thanks. Kindly give the label for the entry you pick.
Response: Q

P: O=C(OCCCN(Cc1ccccc1)Cc1cccc(Oc2ccccc2)c1)N1CCC(n2c(=O)[nH]c3ccccc32)CC1 [Compound 73, hydrochloride]
Q: O=C(OCCN(Cc1ccccc1)Cc1c(F)cccc1F)N1CCC(n2c(=O)[nH]c3ccccc32)CC1
R: CC(C)(COC(=O)N1CCC(n2c(=O)[nH]c3ccccc32)CC1)N(Cc1ccccc1)Cc1ccccc1
Query: Order the records by pIC50, with each subsequent value no larger than the one before. Sort and list the labels as requested.
Response: Q, P, R
(Q: 5.10, P: 4.82, R: 4.30)

1: COc1ccccc1CN(CCOC(=O)N1CCC(n2c(=O)[nH]c3ccccc32)CC1)Cc1ccccc1
2: O=C(OCC(c1ccccc1)c1ccccc1)N1CCC(n2c(=O)[nH]c3ccccc32)CC1
Query: Dear colleague, could you let me know whether 1 or 2 has the lower recorded pIC50? Thanks. Kindly give the label for the entry you pick.
Response: 2
(2: 4.30, 1: 5.00)

----------
biological target: MGDG synthase in isolated spinach chloroplast envelope membranes (Spinacia oleracea, UniProt Q9SM44); construct: envelope membranes purified from the lysate by sucrose centrifugation gradient; from tissue; host or cells: envelope membranes of chloroplasts from spinach leaves; test: MGDG synthase activity in envelope membrane fractions isolated from spinach chloroplasts; format: biochemical; conditions: Table 1, obtained in the same manner as FIG. 4; read-out: Inhibitory effect on MGDG synthesis in isolated spinach chloroplast envelope membranes
pIC50: −log10 of the molar value. Structures can show the parent of a compound that is named as a salt.
reported_property: pIC50

a: C[C@@H](COC(=O)N1CCC(n2c(=O)[nH]c3ccccc32)CC1)N(Cc1ccccc1)Cc1cccc2ccccc12 [Compound 62, hydrochloride]
b: O=C(OCCCN(Cc1ccccc1)Cc1ccnc2ccccc12)N1CCC(n2c(=O)[nH]c3ccccc32)CC1 [Compound 71, hydrochloride]
Query: Dear colleague, could you let me know whether a or b has the lower recorded pIC50? Thanks. Kindly give the label for the entry you pick.
Response: b
(b: 4.30, a: 4.60)

----------
Target: MGDG synthase in isolated spinach chloroplast envelope membranes (Spinacia oleracea, UniProt Q9SM44)
Construct: envelope membranes purified from the lysate by sucrose centrifugation gradient; from tissue; host or cells: envelope membranes of chloroplasts from spinach leaves
Sequence (Q9SM44 99-522): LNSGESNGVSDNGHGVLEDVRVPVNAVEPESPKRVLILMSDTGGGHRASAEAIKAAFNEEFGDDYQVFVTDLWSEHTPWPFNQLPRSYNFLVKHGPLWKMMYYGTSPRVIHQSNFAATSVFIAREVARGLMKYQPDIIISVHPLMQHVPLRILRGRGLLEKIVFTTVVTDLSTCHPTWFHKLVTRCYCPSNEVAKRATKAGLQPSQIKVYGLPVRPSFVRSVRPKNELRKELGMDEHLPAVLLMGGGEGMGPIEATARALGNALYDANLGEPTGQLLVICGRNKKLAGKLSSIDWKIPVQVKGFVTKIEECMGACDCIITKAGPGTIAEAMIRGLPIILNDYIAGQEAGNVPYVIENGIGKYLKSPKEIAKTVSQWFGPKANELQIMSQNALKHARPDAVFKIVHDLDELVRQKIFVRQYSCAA
Assay: MGDG synthase activity in envelope membrane fractions isolated from spinach chloroplasts
Type: biochemical
Settings: Table 1, obtained in the same manner as FIG. 4; read-out: Inhibitory effect on MGDG synthesis in isolated spinach chloroplast envelope membranes
Structures can show the parent of a compound that is named as a salt.
reported_property: IC50 (µM)

These recorded examples may help you get a feel for the data.
compound="C[C@@H](COC(=O)N1CCC(n2c(=O)[nH]c3ccccc32)CC1)N(Cc1ccccc1)Cc1cccc(Oc2ccccc2)c1 [Compound 55, hydrochloride]" reported_property=IC50 unit_text=µM result_value=40
compound="C[C@@H](COC(=O)N1CCC(n2c(=O)[nH]c3ccccc32)CC1)N(Cc1ccccc1)Cc1ccccc1 [Compound 7]" reported_property=IC50 unit_text=µM result_value=45

a: COc1cccc(CN(Cc2ccccc2)[C@@H](C)COC(=O)N2CCC(n3c(=O)[nH]c4ccccc43)CC2)c1 [Compound 54, hydrochloride]
b: O=C(OCCN1C(=O)c2ccccc2C1=O)N1CCC(n2c(=O)[nH]c3ccccc32)CC1 [Compound 15]
Query: Which item exceeds the other in IC50, a or b ? Kindly give the label for the entry you pick.
Response: b
(b: 45 µM, a: 25 µM)

----------
Biological target: MGDG synthase in isolated spinach chloroplast envelope membranes (Spinacia oleracea)
Construct: envelope membranes purified from the lysate by sucrose centrifugation gradient; from tissue; host or cells: envelope membranes of chloroplasts from spinach leaves
Sequence (Q9SM44 99-522): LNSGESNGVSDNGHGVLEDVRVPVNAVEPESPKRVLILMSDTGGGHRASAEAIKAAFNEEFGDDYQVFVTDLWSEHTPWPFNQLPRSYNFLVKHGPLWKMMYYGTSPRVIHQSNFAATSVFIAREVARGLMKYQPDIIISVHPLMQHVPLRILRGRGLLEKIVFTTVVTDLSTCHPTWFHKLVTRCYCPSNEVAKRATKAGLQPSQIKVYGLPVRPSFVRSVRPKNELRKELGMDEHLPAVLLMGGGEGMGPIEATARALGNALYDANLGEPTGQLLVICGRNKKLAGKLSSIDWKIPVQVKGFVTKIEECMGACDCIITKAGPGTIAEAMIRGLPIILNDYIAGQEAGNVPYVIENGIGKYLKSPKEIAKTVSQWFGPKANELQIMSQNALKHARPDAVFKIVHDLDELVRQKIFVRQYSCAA
Test: MGDG synthase activity in envelope membrane fractions isolated from spinach chloroplasts
Type: biochemical
Details: spinach chloroplast envelope membranes, FIG. 4; read-out: IC50, MGDG synthase activity in envelope membranes that surround chloroplasts
reported_property: IC50 (µM)
Express your answer in µM, writing the number without its unit.

Query: State IC50 on MGDG synthase in isolated spinach chloroplast envelope membranes (Spinacia oleracea). Entry: C[C@@H](COC(=O)N1CCC(n2c(=O)[nH]c3ccccc32)CC1)N(Cc1ccccc1)Cc1ccccc1
Response: 10

----------
Biological target: MGDG synthase in isolated spinach chloroplast envelope membranes (Spinacia oleracea)
Construct: envelope membranes purified from the lysate by sucrose centrifugation gradient; from tissue; host or cells: envelope membranes of chloroplasts from spinach leaves
Sequence (Q9SM44 99-522): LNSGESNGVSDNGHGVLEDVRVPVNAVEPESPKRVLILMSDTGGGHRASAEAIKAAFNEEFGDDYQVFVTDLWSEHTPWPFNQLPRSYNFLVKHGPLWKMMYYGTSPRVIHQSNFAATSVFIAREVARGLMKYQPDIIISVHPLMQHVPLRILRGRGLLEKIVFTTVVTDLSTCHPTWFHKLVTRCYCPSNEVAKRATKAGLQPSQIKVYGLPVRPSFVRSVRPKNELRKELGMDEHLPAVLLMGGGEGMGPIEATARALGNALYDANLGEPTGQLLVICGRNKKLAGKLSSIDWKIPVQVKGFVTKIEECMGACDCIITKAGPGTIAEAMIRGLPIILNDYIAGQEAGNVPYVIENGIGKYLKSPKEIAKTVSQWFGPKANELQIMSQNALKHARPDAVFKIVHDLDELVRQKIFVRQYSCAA
Assay: MGDG synthase activity in envelope membrane fractions isolated from spinach chloroplasts
Type: biochemical
Details: Table 1, obtained in the same manner as FIG. 4; read-out: Inhibitory effect on MGDG synthesis in isolated spinach chloroplast envelope membranes
Structures can show the parent of a compound that is named as a salt.
reported_property: IC50 (µM)

molecule="C[C@@H](COC(=O)N1CCC(n2c(=O)[nH]c3ccccc32)CC1)N(Cc1ccccc1)Cc1cccc(Cl)c1 [Compound 56, hydrochloride]" result_value=15
molecule=C[C@@H](COC(=O)N1CCC(n2c(=O)n(C(=O)c3ccccc3)c3ccccc32)CC1)N(Cc1ccccc1)Cc1ccccc1 result_value=50
molecule="COc1ccc(CN(Cc2ccccc2)[C@@H](C)COC(=O)N2CCC(n3c(=O)[nH]c4ccccc43)CC2)cc1 [Compound 39, hydrochloride]" result_value=60
molecule=CC(C)(C)OC(=O)N(Cc1ccccc1)[C@H](COC(=O)N1CCC(n2c(=O)[nH]c3ccccc32)CC1)Cc1ccccc1 result_value=5

1: O=C(OCCN(Cc1ccccc1)Cc1cccc(Cl)c1)N1CCC(n2c(=O)[nH]c3ccccc32)CC1 [Compound 50, hydrochloride]
2: O=C(OCCCN(Cc1ccccc1)Cc1ccc(Cl)cc1)N1CCC(n2c(=O)[nH]c3ccccc32)CC1
Query: Dear colleague, could you let me know whether 1 or 2 has the lower recorded IC50? Thanks. Kindly give the label for the entry you pick.
Response: 1
